For each of the compounds below, state its relative IC50.
- System: T-47D
- TEST_METHOD_NOTES: relative IC50 (midpoint of fitted logistic curve, plateau may be below 50% inhibition; CellTiter-Glo viability); higher = less potent
- MEASUREMENT_CONDITIONS: 4-OH-tamoxifen in medium 1 µM; 72 h

Below, 3 compounds whose answers are already recorded.
O=C(Nc1cccnc1)N1CCC(Cc2cccc(Oc3ccc(C(F)(F)F)cn3)c2)CC1 [PF-3845] : 3.62 µM
CC[C@@H]1C(=O)OC[C@@H]1Cc1cncn1C [Pilocarpine] : > 40 µM
CCCS(=O)(=O)Nc1ccc(F)c(C(=O)c2c[nH]c3ncc(-c4ccc(Cl)cc4)cc23)c1F [Vemurafenib (PLX4032)] : > 10 µM

// returns reported relative IC50 for input C[C@@H]1C[C@H]2[C@@H]3CCC4=CC(=O)C=C[C@]4(C)[C@@]3(F)[C@@H](O)C[C@]2(C)[C@@]1(O)C(=O)CO [Dexamethasone (Decadron)]
> 10 µM
